tested on: MS2 coat protein; test: apparent KD of MS2 coat protein; designed switch direction (-1 OFF switch, 1 ON switch): -1; higher = weaker reporter binding; details: input ligand: microRNA oligo, concentration not stated
Please respond with reported apparent KD of MS2 coat protein for every item in the list.
One number for each entry, in nM.

Example cases with answers are listed next.
CONSTRUCT SEQUENCE	SYSTEM UNDER TEST	apparent KD of MS2 coat protein (nM)
AGCUGUGGCCGAGGAUAUCUGUCUCAUAAAACCGAAAUAUAAUCGGACAUGAGGAUCACCCAUGUAGAGAAGGCGGUCUCAGCA [Eli eng2 - 096] (Eterna round: R96, puzzle: Exclusion NG 2)	MS2 coat protein	15.8
GGGUGUGAAGGAUAUACAUGAGGAUCACCCAUGUGAGAGGAGGAGGUUGAGGAGGUUGGUAGAAGGUCAGGAGG [JR_Exclusion3_Sub011] (Eterna round: R96, puzzle: Exclusion 3)	MS2 coat protein	149
UUAAAACGUGUAGGAUAUGCGUGGCGAAGCUAUGCAGAAGGACAUGAGGAUCACCCAUGUUCCUGCGUCCGCGUACGGAUGCAA [JL Eng1 1.21 mod 2] (Eterna round: R96, puzzle: Exclusion NG 1)	MS2 coat protein	11.9
GUCCGGCAUGUAGGAUAUGGAUCCGAUUAGGAUUUAGAAGGACAUGAGGAUCACCCAUGUGCAUUUAAUUAGUCAUUACCGGAU [EXclNG1-LROPPY05] (Eterna round: R96, puzzle: Exclusion NG 1)	MS2 coat protein	13.6
GCAGCAACUCUAAUCAAACCAACAUGAGGAUCACCCAUGUCUCAGGAUAUGGUCUGGAUUACAGGCCAGAAGGGAGAAAGCUGC [Eli exng3 - 047] (Eterna round: R96, puzzle: Exclusion NG 3)	MS2 coat protein	11.4
CUGCUGGAGCUUUGCUUUAGUCGUACAUGAGGAUCACCCAUGUAGGAUAUGGUAGGCUUUGCUUACUAGAAGGAUAGAGUGAUC [salish99_ExNG3_r04_605] (Eterna round: R96, puzzle: Exclusion NG 3)	MS2 coat protein	62.8
GUCAGCUCGUGAGGAUAUACAUGAUAGAUCGAUUAAUUAAUUAAUUUAACAUGAGGAUCACCCAUGUAGAAGGCACGAGCUGAC [ENG2/1-A1] (Eterna round: R96, puzzle: Exclusion NG 2)	MS2 coat protein	30.9
AUCAGCUCGUCAGGAUAUACAUGAGGAUCACCCAUGUGGUCAUUAGCAGCUUCGGCUGCAUUAAUGUAGAAGGGACGAGCUGAU [ENG2/8-B2] (Eterna round: R96, puzzle: Exclusion NG 2)	MS2 coat protein	522

From here, focus on the item given below.
Prompt: Any idea what apparent KD of MS2 coat protein was measured for AGACGUGCAGUGCUCCUCCACAUGAGGAUCACCCAUGUCACUGAGGAUAUCUGCAGGUAACUGCUGGAGAAGGCAGAAAGAAUG [Atrien] (Eterna round: R96, puzzle: Exclusion NG 3) ?
Completion: 22.1
